Listing of recorded IC50 by entry.
target: human PDE5 (Homo sapiens, UniProt O76074); assay: Inhibition of the type 5 phosphodiesterase (PDE5) activity, modified SPA test with platelet lysate; details: PDE5 from human platelet lysate, 0.5 μM cGMP
Report the figure in nM without appending any unit label.

CCOC(=O)N[C@H]1CC[C@@H](NC(=O)c2c[nH]c3c(-c4ccc(F)cc4OCC4CC4)ncnc23)CC1 :: 2.14
O=C(NC1CCN(C(=O)C2CC2)CC1)c1c[nH]c2c(-c3ccccc3OCC3CC3)ncnc12 :: 2.14
COCC(=O)N[C@H]1CC[C@H](NC(=O)c2c[nH]c3c(-c4cc(C)ccc4OCC4CC4)ncnc23)CC1 :: 1.78

Query: Give the measured IC50 for COc1ccc(-c2ncnc3c(C(=O)NC4CCN(C(=O)[C@H](C)O)CC4)c[nH]c23)c(OCC2CC2)c1
Reply: 0.661

Query: Give the measured IC50 for COCC(=O)N1CCC(NC(=O)c2c[nH]c3c(-c4cc(F)c(OC)cc4OCC4CC4)ncnc23)CC1
Reply: 0.692

Query: Give the measured IC50 for CCC(=O)N1CCC(NC(=O)c2c[nH]c3c(-c4ccc(F)cc4OCC4CC4)ncnc23)CC1
Reply: 1.1

Query: Give the measured IC50 for CCC(=O)N1CCC(NC(=O)c2c[nH]c3c(-c4cc(F)c(OC)cc4OCC4CC4)ncnc23)CC1
Reply: 0.214

----------
molecular target: human PDE5 (Homo sapiens); assay: Inhibition of the type 5 phosphodiesterase (PDE5) activity, modified SPA test with platelet lysate; details: PDE5 from human platelet lysate, 0.5 μM cGMP
Listing of recorded IC50 by entry.
Report the figure in nM without appending any unit label.

// worked examples, IC50 included
COc1cc(-c2ncnc3c(C(=O)N[C@@H]4CCCN(C(=O)CO)C4)c[nH]c23)c(OCC2CC2)cc1F :: 0.2
O=C(NC1CCN(C(=O)C2(O)CC2)CC1)c1c[nH]c2c(-c3c(OCC4CC4)ccc4c3OCO4)ncnc12 :: 0.182
CCCCOc1ccc2c(c1-c1ncnc3c(C(=O)NC4CCCN(C(=O)COC)C4)c[nH]c13)OCO2 (centres unmarked) :: 0.295
COc1ccc(-c2ncnc3c(C(=O)NC4CCN(C(=O)C5CC5)CC4)c[nH]c23)c(OCC2CC2)c1 :: 0.263

Query: Give the measured IC50 for CCOC(=O)N[C@H]1CC[C@@H](NC(=O)c2c[nH]c3c(-c4c(OCC5CC5)ccc5c4OCO5)ncnc23)CC1
Reply: 0.2

----------
Listing of recorded pIC50 by entry.
target: human PDE5 (Homo sapiens); test: Inhibition of the type 5 phosphodiesterase (PDE5) activity, modified SPA test with platelet lysate; conditions: PDE5 from human platelet lysate, 0.5 μM cGMP
Recall that pIC50 is obtained by taking minus log10 of the concentration measured in molar.

COCC(=O)N1CCC(NC(=O)c2c[nH]c3c(-c4cc(C)ccc4OCC4CC4)ncnc23)CC1 [Example 124] :: 8.66
Cc1ccc(OCC2CC2)c(-c2ncnc3c(C(=O)NC4CCN(C(=O)CO)CC4)c[nH]c23)c1 [Example 246] :: 8.44
COc1ccc(OCC2CC2)c(-c2ncnc3c(C(=O)NC4CCN(C(C)=O)CC4)c[nH]c23)c1 [Example 71] :: 8.87

Attention now shifts to the item below.
Query: Give the measured pIC50 for CC(=O)c1ccc(OCC2CC2)c(-c2ncnc3c(C(=O)NC4CCN(C(=O)[C@H](C)O)CC4)c[nH]c23)c1 [Example 264]
Reply: 9.66

----------
Listing of recorded pIC50 by entry.
molecular target: human PDE5 (Homo sapiens, UniProt O76074); assay: Inhibition of the type 5 phosphodiesterase (PDE5) activity, modified SPA test with platelet lysate; settings: PDE5 from human platelet lysate, 0.5 μM cGMP
Recall that pIC50 is obtained by taking minus log10 of the concentration measured in molar.

// worked examples, pIC50 included
Cc1ccc(OCC2CC2)c(-c2ncnc3c(C(=O)N[C@H]4CC[C@H](NC(=O)[C@H](C)O)CC4)c[nH]c23)c1 :: 8.71
O=C(NCC1CCCN(C(=O)CO)C1)c1c[nH]c2c(-c3c(OCC4CC4)ccc4c3OCO4)ncnc12 (stereo not shown) :: 9.41
COc1ccc(-c2ncnc3c(C(=O)NC4CCN(C(=O)C5(O)CC5)CC4)c[nH]c23)c(OCC2CC2)c1 :: 9.61
O=CN1CCC(NC(=O)c2c[nH]c3c(-c4c(OCC5CC5)ccc5c4OCO5)ncnc23)CC1 :: 9.55
CCOC(=O)N[C@H]1CC[C@@H](NC(=O)c2c[nH]c3c(-c4cc(OC)ccc4OCC4CC4)ncnc23)CC1 :: 8.97

Query: Provide pIC50, tested on human PDE5 (Homo sapiens, UniProt O76074), for COc1ccc(OCC2CC2)c(-c2ncnc3c(C(=O)N[C@H]4CC[C@H](NC(C)=O)CC4)c[nH]c23)c1 .
Reply: 9.04

Query: Provide pIC50, tested on human PDE5 (Homo sapiens, UniProt O76074), for CCOC(=O)N1CC[C@@H](NC(=O)c2c[nH]c3c(-c4c(OCC)ccc5c4OCO5)ncnc23)C1 .
Reply: 8.65

----------
molecular target: human PDE5 (Homo sapiens); experiment: Inhibition of the type 5 phosphodiesterase (PDE5) activity, modified SPA test with platelet lysate; conditions: PDE5 from human platelet lysate, 0.5 μM cGMP
observable: log10 IC50 (log10 of the value in nM)
# log10 transformed; quantity=IC50; unit=nM

CC(=O)N[C@H]1CC[C@H](NC(=O)c2c[nH]c3c(-c4ccccc4OCC4CC4)ncnc23)CC1 :: 0.75
O=C(CO)N[C@H]1CC[C@H](NC(=O)c2c[nH]c3c(-c4c(OCC5CC5)ccc5c4OCO5)ncnc23)CC1 :: -0.95
Cc1ccc(OCC2CC2)c(-c2ncnc3c(C(=O)NC4CCN(C(=O)[C@H](C)O)CC4)c[nH]c23)c1 :: 0.37
C[C@H](O)C(=O)N1CCC(NC(=O)c2c[nH]c3c(-c4cc(F)c(OC(F)F)cc4OCC4CC4)ncnc23)CC1 :: 0.46
COc1cc(OCC2CC2)c(-c2ncnc3c(C(=O)N[C@H]4CC[C@H](NC(=O)C5(O)CC5)CC4)c[nH]c23)cc1F :: -0.34
O=C(N[C@H]1CC[C@H](NC(=O)C2(O)CC2)CC1)c1c[nH]c2c(-c3c(OCC4CC4)ccc4c3OCO4)ncnc12 :: -0.91

Attention now shifts to the item below.
Query: Give the measured log10 IC50 for COCCOc1cc(OC)ccc1-c1ncnc2c(C(=O)N[C@H]3CC[C@H](NC(C)=O)CC3)c[nH]c12
Reply: 0.98

----------
molecular target: human PDE5 (Homo sapiens, UniProt O76074); test: Inhibition of the type 5 phosphodiesterase (PDE5) activity, modified SPA test with platelet lysate; conditions: PDE5 from human platelet lysate, 0.5 μM cGMP
observable: pIC50
Recall that pIC50 is obtained by taking minus log10 of the concentration measured in molar.

CCOC(=O)N[C@H]1CC[C@H](NC(=O)c2c[nH]c3c(-c4cc(C)ccc4OCC4CC4)ncnc23)CC1 [Example 122] :: 8.86
O=C(N[C@H]1CC[C@H](NC(=O)C2(O)CC2)CC1)c1c[nH]c2c(-c3ccccc3OCC3CC3)ncnc12 [Example 226] :: 8.47
COCCOc1ccc2c(c1-c1ncnc3c(C(=O)N[C@H]4CC[C@H](NC(=O)CO)CC4)c[nH]c13)OCO2 [Example 260] :: 8.32

Query: Give the measured pIC50 for O=CN1CCOC(CNC(=O)c2c[nH]c3c(-c4c(OCC5CC5)ccc5c4OCO5)ncnc23)C1 (stereo not shown) [Example 35]
Reply: 9.15

----------
target: human PDE5 (Homo sapiens, UniProt O76074); test: Inhibition of the type 5 phosphodiesterase (PDE5) activity, modified SPA test with platelet lysate; conditions: PDE5 from human platelet lysate, 0.5 μM cGMP
Rule: IC50 below 0.8 nM gives Yes, anything at or above gives No.

Look over these answered cases.
COCC(=O)N[C@H]1CC[C@H](NC(=O)c2c[nH]c3c(-c4c(OCC5CCC5)ccc5c4OCO5)ncnc23)CC1 :: Yes
CC(=O)N[C@H]1CC[C@@H](NC(=O)c2c[nH]c3c(-c4c(OCC5CC5)ccc5c4OCO5)ncnc23)CC1 :: Yes
CCC(=O)N1CCOC(CNC(=O)c2c[nH]c3c(-c4c(OCC5CC5)ccc5c4OCO5)ncnc23)C1 (stereo not drawn) :: Yes
COc1cc(-c2ncnc3c(C(=O)NC4CCN(C(=O)[C@H](C)O)CC4)c[nH]c23)c(OCC2CC2)cc1F :: Yes

Query: hey, is IC50 for COCCOc1ccc2c(c1-c1ncnc3c(C(=O)N[C@H]4CC[C@@H](NC(=O)CO)CC4)c[nH]c13)OCO2 lower than 0.8 nM or not?
Reply: No

Query: hey, is IC50 for CC(=O)N1CC(NC(=O)c2c[nH]c3c(-c4c(OCC5CC5)ccc5c4OCO5)ncnc23)C1 lower than 0.8 nM or not?
Reply: Yes

Query: hey, is IC50 for COCC(=O)N1CCC[C@@H](NC(=O)c2c[nH]c3c(-c4cc(F)c(OC)cc4OCC4CC4)ncnc23)C1 lower than 0.8 nM or not?
Reply: Yes

Query: hey, is IC50 for COc1ccc(OCC2CC2)c(-c2ncnc3c(C(=O)NC4CCN(C(=O)[C@H](C)O)CC4)c[nH]c23)c1 lower than 0.8 nM or not?
Reply: No

Query: hey, is IC50 for COCC(=O)N1CCC(CNC(=O)c2c[nH]c3c(-c4c(OCC5CC5)ccc5c4OCO5)ncnc23)C1 (stereo not drawn) lower than 0.8 nM or not?
Reply: No

Query: hey, is IC50 for O=C(NC1CCN(C(=O)CO)CC1)c1c[nH]c2c(-c3cc(F)c(OC(F)F)cc3OCC3CC3)ncnc12 lower than 0.8 nM or not?
Reply: No

Query: hey, is IC50 for CCCOc1ccc2c(c1-c1ncnc3c(C(=O)NC4CCN(C(=O)OCC)CC4)c[nH]c13)OCO2 lower than 0.8 nM or not?
Reply: Yes
